# Test system: Staphylococcus aureus MW2 (mecA+)
# run_description: normalized DsRed fluorescence (growth of mecA+ strain) (fraction of control range); higher = more growth of mecA+ strain
# test_context: compound concentration: 150 uM; cefoxitin: subinhibitory; fluorescent label: DsRed
Structures can show the parent of a compound that is named as a salt.
value_type: normalized DsRed fluorescence

In the examples that follow, each entry is paired with its recorded normalized DsRed fluorescence.
compound	target_under_test	result
CN(C)CCCN1c2ccccc2Sc2ccc(Cl)cc21	Staphylococcus aureus MW2 (mecA+)	1.26
CCCCOc1ccc(CC(=O)NO)cc1 [Bufexamac]	Staphylococcus aureus MW2 (mecA+)	0.828
CN(C)CCOC(c1ccccc1)c1ccccc1	Staphylococcus aureus MW2 (mecA+)	0.789
CC(=O)O[C@H]1C[C@@H]2CC[C@@H]3[C@H](CC[C@@]4(C)[C@H]3C[C@H]([N+]3(C)CCCCC3)[C@@H]4OC(C)=O)[C@@]2(C)C[C@@H]1N1CCCCC1	Staphylococcus aureus MW2 (mecA+)	0.572
CN(C)CCC(c1ccccc1)c1ccccn1 (stereo not given)	Staphylococcus aureus MW2 (mecA+)	0.799
C[C@H]1[C@H](OC(=O)CCC(=O)O)O[C@@H]2O[C@@]3(C)CC[C@H]4[C@H](C)CC[C@@H]1[C@@]24OO3	Staphylococcus aureus MW2 (mecA+)	0.712
Cc1cn([C@H]2C[C@H](N=[N+]=[N-])[C@@H](CO)O2)c(=O)[nH]c1=O	Staphylococcus aureus MW2 (mecA+)	0.887
C[N+](C)(C)CC(=O)O	Staphylococcus aureus MW2 (mecA+)	0.899
NC[C@@H]1O[C@H](O[C@H]2[C@@H](O)[C@H](O[C@@H]3[C@@H](O)[C@H](N)C[C@H](N)[C@H]3O[C@H]3O[C@H](CO)[C@@H](O)[C@H](O)[C@H]3N)O[C@@H]2CO)[C@H](N)[C@@H](O)[C@@H]1O	Staphylococcus aureus MW2 (mecA+)	0.794
CCOC(=O)[C@H](CCc1ccccc1)N[C@H]1CS[C@H](c2cccs2)CN(CC(=O)O)C1=O [Temocapril HCl]	Staphylococcus aureus MW2 (mecA+)	0.936

The compound CN(C)c1nc(N(C)C)nc(N(C)C)n1 showed normalized DsRed fluorescence equal to 0.887

The compound CC1(C)S[C@@H]2[C@H](NC(=O)COc3ccccc3)C(=O)N2[C@H]1C(=O)O showed normalized DsRed fluorescence equal to 0.0783

The compound CCN(CC)CCOc1ccc2c(c1)C(=O)c1cc(OCCN(CC)CC)ccc1-2 showed normalized DsRed fluorescence equal to 0.512

The compound CN1CCC[C@@H]1Cc1c[nH]c2ccc(CCS(=O)(=O)c3ccccc3)cc12 showed normalized DsRed fluorescence equal to 0.948

The compound CC(C)NCC(O)COc1ccc(CCOCC2CC2)cc1 (stereo not given) [Betaxolol hydrochloride (Betoptic)] showed normalized DsRed fluorescence equal to 0.674

The compound CCc1nn(CCCN2CCN(c3cccc(Cl)c3)CC2)c(=O)n1CCOc1ccccc1 showed normalized DsRed fluorescence equal to 0.736

The compound CCCSc1ccc2[nH]c(NC(=O)OC)nc2c1 showed normalized DsRed fluorescence equal to 0.742

The compound C#C[C@]1(OC(C)=O)CC[C@H]2[C@@H]3CCC4=C[C@@H](OC(C)=O)CC[C@@H]4[C@H]3CC[C@@]21C showed normalized DsRed fluorescence equal to 0.568

The compound CC(NCCc1ccc(O)cc1)C(O)c1ccc(O)cc1 (stereo not given) showed normalized DsRed fluorescence equal to 0.736

The compound COc1ccccc1OCC(O)COC(N)=O (stereo not given) showed normalized DsRed fluorescence equal to 0.692

Sourced from the supplement of paper PMC7695840
